# System: monocistronic NK5.1 HCV replicon in Huh7 cells
# MEASUREMENT PROTOCOL: HCV replicon assay, monocistronic replicon cell line
# Type: cell-based, hepatitis C virus
# COND: Hepatitis C virus, Huh-7; monocistronic NK5.1 HCV replicon in Huh7 cells; median value; read-out: Mono EC50 Median
pEC50: −log10 of the molar value.
Is pEC50 at least 5? Then label 1. If not, label 0.

[
  {
    "MOLECULE": "COc1ccc([N+](=O)[O-])cc1-c1nc(-c2cccc(C)n2)n[nH]1 [Compound 407]",
    "ASSAYED SYSTEM": "monocistronic NK5.1 HCV replicon in Huh7 cells",
    "GROUP": "label 0"
  },
  {
    "MOLECULE": "Oc1ccc(F)cc1-c1nc(-c2cnccc2C(F)(F)F)n[nH]1 [Compound 413]",
    "ASSAYED SYSTEM": "monocistronic NK5.1 HCV replicon in Huh7 cells",
    "GROUP": "label 0"
  },
  {
    "MOLECULE": "Cc1ccc(O)c(-c2nc(-c3nccc4ccccc34)n[nH]2)c1 [Compound 375]",
    "ASSAYED SYSTEM": "monocistronic NK5.1 HCV replicon in Huh7 cells",
    "GROUP": "label 0"
  },
  {
    "MOLECULE": "COc1cccc(-c2nc(-c3ccc(N)cn3)no2)c1O [Compound 251]",
    "ASSAYED SYSTEM": "monocistronic NK5.1 HCV replicon in Huh7 cells",
    "GROUP": "label 0"
  },
  {
    "MOLECULE": "Oc1ccccc1-c1nnc(-c2cccs2)o1 [Compound 324]",
    "ASSAYED SYSTEM": "monocistronic NK5.1 HCV replicon in Huh7 cells",
    "GROUP": "label 0"
  },
  {
    "MOLECULE": "Oc1ccc2ccccc2c1-c1nnc(-c2ccccc2)o1 [Compound 304]",
    "ASSAYED SYSTEM": "monocistronic NK5.1 HCV replicon in Huh7 cells",
    "GROUP": "label 0"
  },
  {
    "MOLECULE": "Fc1cc(-c2nc(-c3ccccn3)n[nH]2)ccc1-c1ccccc1 [Compound 357]",
    "ASSAYED SYSTEM": "monocistronic NK5.1 HCV replicon in Huh7 cells",
    "GROUP": "label 1"
  },
  {
    "MOLECULE": "COc1cccnc1-c1noc(-c2cccc(OC)c2O)n1 [Compound 246]",
    "ASSAYED SYSTEM": "monocistronic NK5.1 HCV replicon in Huh7 cells",
    "GROUP": "label 0"
  },
  {
    "MOLECULE": "COc1ccc(F)c(-c2nc(-c3ccccn3)n[nH]2)c1 [Compound 388]",
    "ASSAYED SYSTEM": "monocistronic NK5.1 HCV replicon in Huh7 cells",
    "GROUP": "label 0"
  },
  {
    "MOLECULE": "Cc1cccc(-c2n[nH]c(-c3cc(F)ccc3O)n2)n1 [Compound 393]",
    "ASSAYED SYSTEM": "monocistronic NK5.1 HCV replicon in Huh7 cells",
    "GROUP": "label 0"
  },
  {
    "MOLECULE": "Oc1ccc(F)cc1-c1nc(-c2nccc3ccccc23)n[nH]1 [Compound 369]",
    "ASSAYED SYSTEM": "monocistronic NK5.1 HCV replicon in Huh7 cells",
    "GROUP": "label 1"
  },
  {
    "MOLECULE": "FC(F)(F)c1ccc(-c2noc(-c3cccc4ccccc34)n2)nc1 [Compound 227]",
    "ASSAYED SYSTEM": "monocistronic NK5.1 HCV replicon in Huh7 cells",
    "GROUP": "label 0"
  },
  {
    "MOLECULE": "Oc1ccccc1-c1nc(-c2nccc3ccccc23)n[nH]1 [Compound 377]",
    "ASSAYED SYSTEM": "monocistronic NK5.1 HCV replicon in Huh7 cells",
    "GROUP": "label 0"
  },
  {
    "MOLECULE": "Cc1ccc(O)c(-c2nc(-c3ncccc3C)n[nH]2)c1 [Compound 450]",
    "ASSAYED SYSTEM": "monocistronic NK5.1 HCV replicon in Huh7 cells",
    "GROUP": "label 1"
  },
  {
    "MOLECULE": "CC1(C)CCN2CCC(C)(C)c3c(O)c(-c4nc(-c5cnccc5C(F)(F)F)n[nH]4)cc1c32 [Compound 425]",
    "ASSAYED SYSTEM": "monocistronic NK5.1 HCV replicon in Huh7 cells",
    "GROUP": "label 1"
  },
  {
    "MOLECULE": "COc1ccccc1-c1nnc(-c2ccccc2F)o1 [Compound 326]",
    "ASSAYED SYSTEM": "monocistronic NK5.1 HCV replicon in Huh7 cells",
    "GROUP": "label 0"
  },
  {
    "MOLECULE": "COc1ccc(-c2nc(-c3ccc(N)cn3)no2)c(O)c1 [Compound 253]",
    "ASSAYED SYSTEM": "monocistronic NK5.1 HCV replicon in Huh7 cells",
    "GROUP": "label 0"
  },
  {
    "MOLECULE": "COc1cccc(-c2nc(-c3ccc(NC(=O)OC(C)(C)C)cn3)no2)c1O [Compound 237]",
    "ASSAYED SYSTEM": "monocistronic NK5.1 HCV replicon in Huh7 cells",
    "GROUP": "label 0"
  },
  {
    "MOLECULE": "COc1ccc(O)c(-c2nc(-c3cnccc3C(F)(F)F)n[nH]2)c1 [Compound 414]",
    "ASSAYED SYSTEM": "monocistronic NK5.1 HCV replicon in Huh7 cells",
    "GROUP": "label 0"
  },
  {
    "MOLECULE": "Cc1cccnc1-c1noc(-c2cccc(C)c2O)n1 [Compound 293]",
    "ASSAYED SYSTEM": "monocistronic NK5.1 HCV replicon in Huh7 cells",
    "GROUP": "label 1"
  },
  {
    "MOLECULE": "Oc1ccc2ccccc2c1-c1nnc(-c2ncc(C(F)(F)F)cc2Cl)o1 [Compound 309]",
    "ASSAYED SYSTEM": "monocistronic NK5.1 HCV replicon in Huh7 cells",
    "GROUP": "label 0"
  },
  {
    "MOLECULE": "COc1cccc(-c2nc(-c3cccc(C)n3)n[nH]2)c1 [Compound 405]",
    "ASSAYED SYSTEM": "monocistronic NK5.1 HCV replicon in Huh7 cells",
    "GROUP": "label 0"
  },
  {
    "MOLECULE": "COc1cccc(-c2nc(-c3cnccc3C(F)(F)F)n[nH]2)c1O [Compound 423]",
    "ASSAYED SYSTEM": "monocistronic NK5.1 HCV replicon in Huh7 cells",
    "GROUP": "label 0"
  },
  {
    "MOLECULE": "CCOc1cccc(-c2nc(-c3ccc(C(F)(F)F)cn3)no2)c1O [Compound 269]",
    "ASSAYED SYSTEM": "monocistronic NK5.1 HCV replicon in Huh7 cells",
    "GROUP": "label 0"
  },
  {
    "MOLECULE": "COc1ccc(O)c(-c2nc(-c3ccc(C(F)(F)F)cn3)no2)c1 [Compound 224]",
    "ASSAYED SYSTEM": "monocistronic NK5.1 HCV replicon in Huh7 cells",
    "GROUP": "label 1"
  },
  {
    "MOLECULE": "Oc1ccc2ccccc2c1-c1nc(-c2ncccc2-c2ccccc2)no1 [Compound 229]",
    "ASSAYED SYSTEM": "monocistronic NK5.1 HCV replicon in Huh7 cells",
    "GROUP": "label 0"
  },
  {
    "MOLECULE": "Cc1cccnc1-c1noc(-c2cc(C3OCC(C)(C)CO3)ccc2O)n1 [Compound 297]",
    "ASSAYED SYSTEM": "monocistronic NK5.1 HCV replicon in Huh7 cells",
    "GROUP": "label 1"
  }
]

* * *

Property: EC50; scope: individual compounds
# System: monocistronic NK5.1 HCV replicon in Huh7 cells
# MEASUREMENT PROTOCOL: HCV replicon assay, monocistronic replicon cell line
# Type: cell-based, hepatitis C virus
# COND: Hepatitis C virus, Huh-7; monocistronic NK5.1 HCV replicon in Huh7 cells; median value; read-out: Mono EC50 Median
RECORDED ENDPOINT: EC50

[
  {
    "STRUCTURE SMILES STRING": "Cc1cccc(-c2n[nH]c(-c3cccc([N+](=O)[O-])c3)n2)n1",
    "READING": "> 19 µM"
  },
  {
    "STRUCTURE SMILES STRING": "COc1ccc(F)c(-c2nc(-c3cccc(C)n3)n[nH]2)c1",
    "READING": "> 19 µM"
  },
  {
    "STRUCTURE SMILES STRING": "Oc1cc(OCc2ccccc2)ccc1-c1nc(-c2ccccn2)n[nH]1",
    "READING": "> 19 µM"
  },
  {
    "STRUCTURE SMILES STRING": "Cc1cccc(-c2n[nH]c(-c3ccccc3F)n2)n1",
    "READING": "> 32 µM"
  },
  {
    "STRUCTURE SMILES STRING": "Cc1cccc(-c2n[nH]c(-c3cccc4ccccc34)n2)n1",
    "READING": "> 19 µM"
  }
]

Reference source for all entries: patent US20050075375A1
